- Test system: Candida albicans
- Assay explanation: Antimicrobial activity against fluconazole-resistant Candida albicans
- Type: functional
Entries annotated with measured MIC
Expressed in µg/mL, but write only the number.

# Molecule, Quantity unit, Reading
rows = [
    ("CC1(C)CC[C@]2(C(=O)O)CC[C@]3(C)C(=CC[C@@H]4[C@@]5(C)CC[C@H](OC(=O)CCC(=O)O)C(C)(C)[C@@H]5CC[C@]43C)[C@@H]2C1 [OLEANOLIC ACID 3-O-SUCCINATE]", "µg/mL", 32),
]

Attention now shifts to the item below.
## Input # query: MIC | item CC1(C)CC[C@]2(C(=O)O)CC[C@]3(C)C(=CC[C@@H]4[C@@]5(C)CC[C@H](OCC(O)CCCCCCCCNC(=N)N)C(C)(C)[C@@H]5CC[C@]43C)[C@@H]2C1 (stereo not given in full) | system: Candida albicans
## Output 16

====

- Assay explanation: Selectivity index, ratio of HC50 for hemolytic activity against Mianyang red blood cells (unknown origin) to MIC for antimicrobial activity against methicillin resistant Staphylococcus aureus 003
- Assay type: toxicity, cell-based, RBC
- Measurement setup: read-out: Selectivity Index
Reported endpoint: selectivity ratio
// no unit, no text: just the number

# Molecule, Reported endpoint, Reading
records = [
    ("CC(=O)O[C@H]1CC[C@]2(C)[C@H]3CC=C4[C@@H]5CC(C)(C)CC[C@]5(C(=O)NCCCNC(=N)N)CC[C@@]4(C)[C@]3(C)CC[C@H]2C1(C)C", "selectivity ratio", 399),
    ("CC1(C)CC[C@]2(C(=O)O)CC[C@]3(C)C(=CC[C@@H]4[C@@]5(C)CC[C@H](OCC(O)CCCCN)C(C)(C)[C@@H]5CC[C@]43C)[C@@H]2C1 (stereo partly specified)", "selectivity ratio", 6.54),
    ("CC(=O)O[C@H]1CC[C@]2(C)[C@H]3CC=C4[C@@H]5CC(C)(C)CC[C@]5(C(=O)NCCCCCCCCNC(=N)N)CC[C@@]4(C)[C@]3(C)CC[C@H]2C1(C)C", "selectivity ratio", 57.9),
    ("CC1(C)CC[C@]2(C(=O)O)CC[C@]3(C)C(=CC[C@@H]4[C@@]5(C)CC[C@H](OCC(O)CCCCCCCCNC(=N)N)C(C)(C)[C@@H]5CC[C@]43C)[C@@H]2C1 (stereo partly specified)", "selectivity ratio", 72.1),
    ("CC(=O)O[C@H]1CC[C@]2(C)[C@H]3CC=C4[C@@H]5CC(C)(C)CC[C@]5(C(=O)NCCCCCCCCN)CC[C@@]4(C)[C@]3(C)CC[C@H]2C1(C)C", "selectivity ratio", 7.53),
]

## Input Bench note: what selectivity ratio did "CC(=O)O[C@H]1CC[C@]2(C)[C@H]3CC=C4[C@@H]5CC(C)(C)CC[C@]5(C(=O)NCCCCN)CC[C@@]4(C)[C@]3(C)CC[C@H]2C1(C)C" show?
## Output 16.5

## Input Bench note: what selectivity ratio did CC1(C)CC[C@]2(C(=O)O)CC[C@]3(C)C(=CC[C@@H]4[C@@]5(C)CC[C@H](OCC(O)CCCN)C(C)(C)[C@@H]5CC[C@]43C)[C@@H]2C1 (stereo partly specified) show?
## Output 8.01

## Input Bench note: what selectivity ratio did CC1(C)CC[C@]2(C(=O)O)CC[C@]3(C)C(=CC[C@@H]4[C@@]5(C)CC[C@H](OCC(O)CCCCCCCCN)C(C)(C)[C@@H]5CC[C@]43C)[C@@H]2C1 (stereo partly specified) show?
## Output 3.15

The values you see were collected from ChEMBL document CHEMBL6127107.
